Quick reference for %Inh among some compounds
- Test system: RIPK4;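 further: KINOMEscan kinase panel screen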
- condition: concentration: 1 μM, replicates: in singlicate; n = 1
Unit % implied. Number only.

- compound: "c1ccc(-c2ccc3c(-c4ccnc(Nc5ccc6c(c5)OCCO6)n4)cnn3n2)cc1 [GW818941]"
  study-system: "RIPK4"
  %Inh / %: 0
- compound: "C[C@@H]1CCN(C(=O)CO)C[C@@H]1N(C)c1ncnc2[nH]ccc12"
  study-system: "RIPK4"
  %Inh / %: 0
- compound: "O=C(Nc1n[nH]c2nc(-c3ccco3)c(Br)cc12)c1ccc(CN2CCCC2)cc1.O=C(O)[C@H](O)[C@@H](O)C(=O)O [SB-742352]"
  study-system: "RIPK4"
  %Inh / %: 0
- compound: "Cn1ccc2ncnc(Nc3ccc(Oc4cccc(Cl)c4)c(Cl)c3)c21"
  study-system: "RIPK4"
  %Inh / %: 0
- compound: "CCc1nc(-c2cccc(C)c2)c(-c2ccnc(NC(=O)c3ccccc3)c2)s1"
  study-system: "RIPK4"
  %Inh / %: 42

-- ask Item CN1CCC(n2cnc(-c3ccc(F)cc3)c2-c2ccnc(NC3CCNCC3)n2)CC1 [SB-229482] : provide %Inh
-- reply 45

-- ask Return value of %Inh for input FC(F)(F)c1cc(Nc2nccc(-c3c(-c4ccc(Cl)cc4)nn4ncccc34)n2)ccc1Cl [GW829351] , no commentary.
-- reply 0

-- ask Quick one: give measured %Inh for CS(=O)(=O)CCNCc1nc(-c2ccc3ncnc(Nc4ccc(OCc5cccc(F)c5)c(Cl)c4)c3c2)cs1.Cl [GW583340]
-- reply 6
